Target: T1, human serum albumin (human, UniProt P02768 25-609)
T1 construct: mature; Bought purified serum albumin; also called HSA; Human albumin
Test: SPR, Fab captured; albumin taken as HSA;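 further: antibody held on a capture surface, albumin injected for 3 min association then dissociation followed, signals corrected using a blank reference flow cell and buffer-only injections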
Hi there, I'd appreciate the recorded Kd for every entry that follows.
Put down the number, then write its unit next to it.

// query Kd value for entry CA645 gL13gH5 Fab (Fab, V domains shown, Fab: human gamma1 CH1, human kappa (Km3); Kabat numbering) VH: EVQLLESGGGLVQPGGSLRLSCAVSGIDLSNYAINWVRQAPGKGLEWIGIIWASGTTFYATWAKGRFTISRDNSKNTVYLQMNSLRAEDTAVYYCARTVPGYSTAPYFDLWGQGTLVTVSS VL: DIQMTQSPSSVSASVGDRVTITCQSSPIVWSNFLSWYQQKPGKAPKLLIYEASKLTSGVPSRFSGSGSGTDFTLTISSLQPEDFATYYCGGGYSSISDTTFGGGTKVEIK
1.88 nM

Ok, now CA645 gL4gH39 Fab (Fab, V domains shown, Fab: human gamma1 CH1, human kappa (Km3); Kabat numbering) VH: EVQLLESGGGLVQPGGSLRLSCAVSGIDLSNYAINWVRQAPGKGLEWIGIIWASGTTFYATWAKGRFTISRDNSKNTVYLQMNSLRAEDTAVYYCARTVPIYSTAPYFDLWGQGTLVTVSS VL: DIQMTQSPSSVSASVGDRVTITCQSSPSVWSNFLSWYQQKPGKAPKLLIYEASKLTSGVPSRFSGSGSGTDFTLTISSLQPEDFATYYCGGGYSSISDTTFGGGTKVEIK
14 nM

Ok, now CA645 gL4gH42 Fab (Fab, V domains shown, Fab: human gamma1 CH1, human kappa (Km3); Kabat numbering) VH: EVQLLESGGGLVQPGGSLRLSCAVSGIDLSNYAINWVRQAPGKGLEWIGIIWASGTTFYATWAKGRFTISRDNSKNTVYLQMNSLRAEDTAVYYCARTVPQYSTAPYFDLWGQGTLVTVSS VL: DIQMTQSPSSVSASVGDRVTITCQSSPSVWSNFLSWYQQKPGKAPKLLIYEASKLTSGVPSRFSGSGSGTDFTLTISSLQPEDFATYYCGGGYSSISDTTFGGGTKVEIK
4.17 nM
